# assayed_target: first bromodomain of BRD4 (Homo sapiens (Human))
# experimental_protocol: Bromoscan binding assay BRD4 (1)
# experimental_conditions: ratio BRD4(2) Kd / BRD4(1) Kd
Could you please mark criterion met for values of Selectivity BRD4(2)/BRD4(1) below 20 and criterion not met for values at or above it?

| molecule | class_name |
| --- | --- |
| COc1cc(NC(=O)c2cc3c(nc2N2CC4CCOC4C2)COC3)cc2c(C)cc(=O)[nH]c12 (centres unmarked) | criterion not met |
| COc1cc(NC(=O)c2cc3c(nc2N2CCOCC2)CO[C@@H]3C)cc2c(C)cc(=O)[nH]c12 | criterion not met |
| Cc1c(NC(=O)c2cc3c(nc2N2CCOCC2)COC3)cc2c(C)cc(=O)[nH]c2c1C | criterion not met |
| COc1cc(NC(=O)c2cc3c(nc2N(C)C)COC3)cc2c(C)cc(=O)[nH]c12 | criterion met |
| Cc1cc(=O)[nH]c2c3c(c(NC(=O)c4cc5c(nc4N4CCOCC4)COC5)cc12)OCCO3 | criterion not met |
| CNCCOc1cc(NC(=O)c2cc3c(nc2N2CCOCC2)COC3)cc2c(C)cc(=O)[nH]c12 | criterion not met |
| Cc1cc(=O)[nH]c2c(OCCO)cc(NC(=O)c3cc4c(nc3N3CCOCC3)COC4)cc12 | criterion met |
| COc1cc(NC(=O)c2cc3c(nc2N2CCOCC2)COC3)cc2c(C)cc(=O)[nH]c12 | criterion not met |
